Each recorded value in this set is attributed to PubChem BioAssay.

Consider the following compounds; for each one, report its z-score.
# system: NADPH oxidase 2 (Homo sapiens)
# protocol: NOX2-dependent H2O2 signal modulators, primary screen, NOX inhibitor project, cell-based, HEK293-NOX2, PMA-stimulated, Amplex Red fluorescence (AID 1159); further: test concentration not given here
# protocol-conditions: 45 min, higher = more signal, called active from +8 up or from −8 down
One number for each entry.

These solved cases illustrate the format of a correct answer.
compound: C=C(CCCC)/C(=C/C[C@H](OC(=O)c1ccncc1)c1cccc(OCCO)c1)c1cc(C(=O)OC)ccc1OC
z-score: -3.36
--
compound: CO[C@@H]1COC(=O)CC=C[C@@H](C)[C@H](OC)COC(=O)CC=C[C@H]1C
z-score: -0.49
--
compound: COC(=O)[C@@]1(Cc2ccc(OC)cc2)[C@H]2c3cc(C(=O)N(C)C)n(CCc4ccc(OC)c(Br)c4)c3C[C@H]2CN1C(=O)c1ccccc1
z-score: -0.052
--
compound: C[C@@H]1CC[C@H]2C(=O)N3[C@@H](CC[C@@H](C)[C@@H]3c3cccc(N4CCOCC4)c3)C(=O)N2[C@H]1c1cccc(N2CCOCC2)c1
z-score: 1.07
--
compound: COC(=O)[C@@]1(Cc2ccc(OC)cc2)[C@H]2c3cc(C(=O)N(C)C)n(Cc4ccc(C)c(F)c4F)c3C[C@H]2CN1C(=O)c1ccccc1
z-score: -0.795
--
compound: C=CC[C@]1(C(=O)OC)N=C(c2ccc(OCCCO)cc2)O[C@H]1c1ccccc1CN=[N+]=[N-]
z-score: -3.18
--
compound: C=CC[C@@]1(C(=O)N2CCOCC2)N=C(c2ccc(OCCCO)cc2)O[C@@H]1c1ccccc1
z-score: -1.04
--
compound: CO[C@H]1O[C@H](CO)[C@@H](OC(=O)Nc2ccccc2)[C@H](OC(=O)Nc2ccc3c(c2)OCO3)[C@@H]1OC(=O)Nc1ccc2c(c1)OCO2
z-score: 0.679

Would you mind giving z-score for every compound in the list below?
1. CO[C@]12C=C(Br)[C@@H](C[C@@H]1c1ccccc1)[C@@]1(CO1)C2=O
2. COC(=O)C[C@H]1O[C@]2(C(=O)N(C)c3ccccc32)[C@@H](C)[C@@H]1[Si](C)(C)c1ccc(OC)cc1
3. C=CCc1cccc([C@H]2N[C@H](C(=O)O)CC[C@@H]2C)c1
4. CO[C@H]1COC(=O)CC=C[C@H](C)COC(=O)[C@@H](OCc2ccccc2)C=C[C@@H]1C
5. C=C(COC)/C(=C/C[C@@H](OC(C)=O)c1cccc(OCCO)c1)c1cc(C(=O)OC)ccc1OC
6. C=CCOC(=O)[C@@H]1[C@H]2C(=O)O[C@H](c3ccccc3)[C@H](c3ccccc3)N2[C@H](c2ccc(OCCOC(=O)[C@H]3C[C@H]4C(=O)N[C@@H](CCCCNC(C)=O)C(=O)N4[C@H]3c3ccc(O)cc3)cc2)[C@@]12C(=O)Nc1ccc(I)cc12

[0.575, 0.0822, 0.183, 0.837, 1.51, 2.16]

Requested read-out: z-score. Entry: CN1C2C=C(c3ccc(CO)cc3)C(C3C(=O)N(C(N)=O)C(=O)C32)C1c1cccs1 (stereo not given)
1.57

----------
# system: Streptavidin (Streptomyces avidinii) (UniProt P22629)
# Sequence (P22629 whole entry, looked up): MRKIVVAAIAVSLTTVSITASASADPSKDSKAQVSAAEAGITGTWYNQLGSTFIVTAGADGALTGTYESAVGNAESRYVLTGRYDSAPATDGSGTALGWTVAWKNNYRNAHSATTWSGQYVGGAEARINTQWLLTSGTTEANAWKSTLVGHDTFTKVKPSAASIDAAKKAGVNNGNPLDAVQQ
# protocol: streptavidin binders on small-molecule microarray, primary screen, artefact control for SMM compound annotation, biophysical, 635/667 nm fluorescence (AID 1147);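 further: signal reflects streptavidin binding to arrayed compounds as a control protein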
# protocol-conditions: streptavidin binding, higher = more signal
measure-name: composite z-score
One number for each entry.

Worked examples follow.
molecule: CCOC(=O)C[C@H]1[C@H](OC(=O)c2ccccc2-c2ccccc2)[C@@H](NC(=O)C2CCCCC2)c2cc(OCCCO)ccc2N1C(=O)c1ccccc1
composite z-score: 0.0739
//
molecule: C=CCC(OC(C)=O)[C@@H]1[C@@H](N(Cc2cccc3ccccc23)C(=O)Cc2ccc(F)cc2)c2cc(OCCCO)ccc2N1C(=O)Cc1ccc2ccccc2c1 (some centres not stated)
composite z-score: -0.11
//
molecule: Cc1ccc(S(=O)(=O)c2cc3oc2CC[C@@H](CO)NC(=O)N(C)Cc2cn(nn2)C[C@H](Cc2ccccc2)NC3=O)cc1
composite z-score: -0.183
//
molecule: CO[C@H]1COC(=O)[C@@H](C)NC(=O)CC=C[C@@H](C)[C@H](OC)COC(=O)CC=C[C@@H]1C
composite z-score: 0.0569
//
molecule: [N-]=[N+]=Nc1ccccc1C[C@@]1(C(=O)N2CCOCC2)N=C(c2ccc(OCCCO)cc2)O[C@@H]1c1ccccc1N=[N+]=[N-]
composite z-score: 0.955

Go through the list and state composite z-score for each entry.
1. C#CCCCON=C1C[C@@H](O)[C@@H](O)[C@@H]2[C@@H]3C(=O)N(Cc4ccc5c(c4)OCO5)C(=O)[C@@H]3CC[C@H]12
2. CC1CC/C=C\[C@H]2OC34C=CCN(Cn5nnc6ccccc65)C(=O)[C@H]3N(C(C)CO)C(=O)[C@@H]4C2C(=O)O1 (some centres not stated)

1. 1.26
2. -0.465

----------
# system: Torsin-1A-interacting protein 2 (Homo sapiens)
# protocol: LULL1 binders on small-molecule microarray, primary screen, cell lysate, human LULL1 lysate, 635/667 nm fluorescence (AID 1092);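 further: probe is lysate of COS7 cells overexpressing human LULL1; score merges per-feature 667 nm fluorescence with signal-to-noise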
# protocol-conditions: hLULL1 lysate binding, 635 nm fluorescence, higher = more signal
Assignment: determine reported composite z-score for the given molecules.
One number for each entry.

molecule: CC(C)C[C@@H]1NC(=O)[C@H]2C[C@@H](C(=O)NCCCCCC[N+](C)(C)C)[C@@H](c3ccc(O)cc3)N2C1=O
composite z-score: 1.82

molecule: Cc1ccc(S[C@]2(C(=O)NCCN3CCOCC3)CC(=O)N(C3Cc4ccccc4C3)[C@@H]2c2ccc(CO)cc2I)cc1
composite z-score: 1.96

molecule: O=C1OCCC=C[C@H]2OC34C=CCN(Cc5ccccc5)C(=O)[C@H]3N(CCO)C(=O)[C@@H]4C12 (stereo partly drawn)
composite z-score: -0.89

molecule: COC(=O)C1=C(C)N(Cc2ccccc2)c2c(C(=O)OC)c(C(=O)OC)c(C(=O)OC)c(=O)n2[C@@H]1c1ccccc1
composite z-score: 0.309

molecule: O=C/C=C/c1ccc(/C=C/c2ccccc2)cc1
composite z-score: -0.917

For every record below, what is its composite z-score?
1. O=C1O[C@@H](c2ccccc2)[C@@H](c2ccccc2)N2[C@@H](c3ccc(OCCO)cc3)[C@]3(C(=O)Nc4ccc(C#CCCO)cc43)[C@@H](C(=O)N3CCN(c4ncccn4)CC3)[C@H]12
2. Cc1ccccc1C(O)C1C=CC2C(=O)N(c3ccccc3)C(=O)C2N1Nc1ccc(C#N)cc1 (stereo not drawn)
3. COc1cc2c(cc1OC)CN(C(=O)[C@H]1[C@@H]3C(=O)O[C@@H](c4ccccc4)[C@@H](c4ccccc4)N3[C@@H](c3ccccc3OCCO)[C@]13C(=O)Nc1ccc(C#CC4(O)CCCCCC4)cc13)CC2
4. CN1C(=O)C2C=CC(C(O)c3ccc(N(C)C)cc3)N(Nc3ccc([N+](=O)[O-])cc3[N+](=O)[O-])C2C1=O (stereo not drawn)

1: 2.69; 2: 2.89; 3: 2.83; 4: 2.77

Fill in composite z-score for each of the 2 molecules listed.
1. CCN1C(C)=C(C(=O)OC)[C@@H](c2ccccc2)N2C(=O)[C@@]3(C(=O)OC)O[C@@]12[C@@H]1C(=O)N(C)C(=O)[C@@H]13
2. CC/C=C/C(=O)N(C[C@@H]1CCCO1)[C@@H]1CC(C(=O)NCCO)=C[C@H](Oc2c(I)cc(CO)cc2OC)[C@H]1O

1.44
1.69

Dear colleague, could you send me composite z-score for each of the items below? Thanks.
1. COC(=O)C(CC#Cc1ccc2c(c1)[C@]1(C(=O)N2)[C@H](C(=O)N2CCCCCCC2)[C@H]2C(=O)O[C@H](c3ccccc3)[C@H](c3ccccc3)N2[C@@H]1c1ccc(O)cc1)C(=O)OC
2. COCCOC(=O)N1C(=O)[C@@]2(c3cc(C#CCCO)ccc31)[C@H](c1ccc(O)cc1)N1[C@H](c3ccccc3)[C@H](c3ccccc3)OC(=O)[C@H]1[C@@H]2C(=O)Nc1nc2ccccc2s1

1: -0.573; 2: 2.84

----------
# System: Inhibin beta A chain (activin A)
# protocol: INHBA (activin A) binders on microarrays, primary screen, biochemical, small-molecule microarray, 635 nm fluorescence scan (AID 1107);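 further: mouse activin A protein probed at 4.33 µg/mL on printed slides; score merges bound-protein fluorescence near 667 nm with spot signal-to-noise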
# protocol-conditions: small-molecule microarray binding, higher = more signal
Record YES whenever composite z-score is at 1 or higher; record NO when lower.

molecule: C=CCN1C(=O)[C@]2(O[C@H](CCn3cc(CCO)nn3)[C@@H]([Si](C)(C)c3ccc(OC)cc3)[C@@H]2C)c2cc(NC(=O)c3ccc(OC)cc3)ccc21
label: YES
--
molecule: CCCC[C@H]1OB(O)C[C@H]2C1=C(COC)C[C@H]1C(=O)N(Cc3ccccc3)C(=O)[C@H]12
label: NO
--
molecule: Cc1cc(C)c(C(O)C2C=CC3C(=O)N(C)C(=O)C3N2N2CCCCC2)c(C)c1 (configuration not stated)
label: YES
--
molecule: COC(=O)C[C@H]1O[C@]2(C(=O)N(Cc3ccccc3)c3ccc(I)cc32)[C@@H](C)[C@@H]1[Si](C)(C)c1ccc(OC)cc1
label: NO
--
molecule: CCC(=O)[C@]12O[C@@]3([C@@H]4C(=O)OCC[C@@H]41)N(Cc1ccccc1)C(C)=C(C(=O)OC)[C@@H](c1ccccc1)N3C2=O
label: YES

Exam item: decide whether the reported composite z-score for `O=C1C[C@@](C(=O)NC2CC2)(c2ccc([N+](=O)[O-])cc2)[C@@H](c2ccc(CO)cc2I)N1CC12CC3CC(CC(C3)C1)C2` is at least 1.
NO

Cool, now `O=C(NCc1ccccc1)[C@@]1(CCS(=O)(=O)c2ccccc2)COC(c2ccc(OCCCO)cc2)=N1`
NO
